Each recorded value in this set is attributed to paper PMC11997982.

Assay System: His-RBD WT (Influenza A virus A/Brevig …, UniProt Q99AU3 1-85)
Sequence (Q99AU3 1-85): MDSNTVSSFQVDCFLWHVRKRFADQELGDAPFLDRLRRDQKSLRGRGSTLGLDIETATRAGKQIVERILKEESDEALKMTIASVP
Experiment Notes: fluorescence polarization; biphasic, first transition; […], pH 8.0, 1 h at room temperature; […]
Test Parameters: protein: recombinant; tags: N-term 10xHis; chain copies: 2; label: 5'-FAM (FITC) on both strands; blunt
Recorded Endpoint: Kd (nM)
Entry rule: numbers only, all in nM.

// query # Kd lookup, item FAM-dsRNA 16 bp (dsRNA) RNA 1: CCAUCCUCUACAGGCG RNA 2: CGCCUGUAGAGGAUGG
// result 83
